Measured 100 nL (luminescence) by item
# TESTED TARGET: Nrf2-Keap1 complex (Homo sapiens)
# Sequence (Q14145 whole entry, one chain of several): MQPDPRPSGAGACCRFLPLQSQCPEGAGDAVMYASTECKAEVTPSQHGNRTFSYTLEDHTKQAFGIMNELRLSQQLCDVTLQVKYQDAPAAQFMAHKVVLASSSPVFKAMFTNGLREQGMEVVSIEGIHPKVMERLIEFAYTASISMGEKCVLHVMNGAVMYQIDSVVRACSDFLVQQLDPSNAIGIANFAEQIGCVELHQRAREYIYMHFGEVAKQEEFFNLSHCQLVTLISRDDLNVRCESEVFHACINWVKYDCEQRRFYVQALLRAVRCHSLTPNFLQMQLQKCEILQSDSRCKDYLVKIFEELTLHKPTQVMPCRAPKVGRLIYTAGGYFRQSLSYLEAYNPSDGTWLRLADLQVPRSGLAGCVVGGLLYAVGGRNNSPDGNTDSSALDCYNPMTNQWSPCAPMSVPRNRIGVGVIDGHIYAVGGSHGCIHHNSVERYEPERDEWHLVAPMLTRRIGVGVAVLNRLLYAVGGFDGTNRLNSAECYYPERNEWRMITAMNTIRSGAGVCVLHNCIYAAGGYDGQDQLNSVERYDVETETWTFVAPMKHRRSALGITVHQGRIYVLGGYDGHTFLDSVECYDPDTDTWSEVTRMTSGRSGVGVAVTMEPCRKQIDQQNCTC
# ASSAY REMARKS: cell-based
# Format: cell-based
# CONDITION NOTES: Table 2; 100 nL compound; screen run at 16 and 32 μM, 3 hr
I only need the number, thanks.

COMPOUND	100 nL (luminescence)
CC(C)=CCCC1(C)C=Cc2c(O)c3c(c(CC=C(C)C)c2O1)OC12C(CC4CC1C(C)(C)OC2(C/C=C(/C)C(=O)O)C4O)C3=O (stereo not shown) [TETRAHYDROGAMBOGICACID]	5480
CC1(C)C(=O)CC[C@]2(C)[C@H]3CC[C@]4(C)C(=CC(=O)O[C@H]4c4ccoc4)[C@]3(C)[C@H](O)C[C@@H]12 [DIHYDRO-7-DESACETYLDEOXYGEDUNIN]	1852
COc1cc(/C=C/C(=O)CC(=O)/C=C/c2ccc(O)c(OC)c2)ccc1O	4208

Now consider a different compound.
Q) Look at this compound and give its reported 100 nL (luminescence). C=C1C2=CC(=O)O[C@@H](c3ccoc3)[C@]2(C)CC[C@@H]1[C@@]1(C)C=CC(=O)C(C)(C)[C@@H]1CC(=O)OC
A) 1816
